# assay: Pharmacokinetics after intravenous apixaban, plasma concentrations by LC/MS
# Type: in vivo, dog
# stated.conditions: both sexes, mixed-breed, dog, plasma, iv, 0.18 mg/kg, dogs, IV, mean dose 0.18 mg/kg; mean of 6 dogs; read-out: C0 (concentration at time zero)
metric.name: C0 (ng/mL)
Field: numeric (ng/mL). Do not append units.

Prompt line: Give the measured C0 of COc1ccc(-n2nc(C(N)=O)c3c2C(=O)N(c2ccc(N4CCCCC4=O)cc2)CC3)cc1 [apixaban] .
Response line: 1010

----------
# assay: Pharmacokinetics after oral apixaban capsules, plasma concentrations by LC/MS
# stated.conditions: both, mixed-breed, dog, in vivo, po, 0.2 mg/kg
metric.name: CL/F (mL/min/kg)
Field: numeric (mL/min/kg). Do not append units.

Prompt line: Give the measured CL/F of COc1ccc(-n2nc(C(N)=O)c3c2C(=O)N(c2ccc(N4CCCCC4=O)cc2)CC3)cc1 .
Response line: 1.88

----------
# assay: Pharmacokinetics after intravenous apixaban, plasma concentrations by LC/MS
# Type: in vivo, dog
# stated.conditions: both sexes, mixed-breed, dog, in vivo, iv, 0.18 mg/kg, dogs, IV, mean dose 0.18 mg/kg; individual dogs (Dog 1-6); read-out: Vd (volume of distribution)
metric.name: Vd (L/kg)
Field: numeric (L/kg). Do not append units.

Prompt line: Give the measured Vd of COc1ccc(-n2nc(C(N)=O)c3c2C(=O)N(c2ccc(N4CCCCC4=O)cc2)CC3)cc1 [apixaban] .
Response line: 0.163

----------
# assay: Pharmacokinetics after intravenous apixaban, plasma concentrations by LC/MS
# Assay type: in vivo, dog
# stated.conditions: both sexes, mixed-breed, dog, plasma, iv, 0.18 mg/kg, dogs, IV, mean dose 0.18 mg/kg; mean of 6 dogs; read-out: CL (systemic clearance) (converted)
metric.name: clearance
Hey, just the number and the unit after it is fine.

Prompt line: Give the measured clearance of COc1ccc(-n2nc(C(N)=O)c3c2C(=O)N(c2ccc(N4CCCCC4=O)cc2)CC3)cc1 .
Response line: 0.563 mL/min/kg

----------
# assay: Pharmacokinetics after intravenous apixaban, plasma concentrations by LC/MS
# Assay type: in vivo, dog
# stated.conditions: both sexes, mixed-breed, dog, plasma, iv, 0.18 mg/kg, dogs, IV, mean dose 0.18 mg/kg; geometric mean; read-out: K10 T½ (elimination half-life) (converted)
metric.name: half-life (h)
Field: numeric (h). Do not append units.

Prompt line: Give the measured half-life of COc1ccc(-n2nc(C(N)=O)c3c2C(=O)N(c2ccc(N4CCCCC4=O)cc2)CC3)cc1 [apixaban] .
Response line: 3.9

----------
# assay: Pharmacokinetics after intravenous apixaban, plasma concentrations by LC/MS
# Assay type: in vivo, dog
# stated.conditions: both sexes, mixed-breed, dog, plasma; dogs, IV 0.18 mg/kg, at 24 h; read-out: mean residual plasma concentration
metric.name: concentration at 24 h (ng/mL)
Field: numeric (ng/mL). Do not append units.

Prompt line: Give the measured concentration at 24 h of COc1ccc(-n2nc(C(N)=O)c3c2C(=O)N(c2ccc(N4CCCCC4=O)cc2)CC3)cc1 .
Response line: 17

----------
# assay: Pharmacokinetics after intravenous apixaban, plasma concentrations by LC/MS
# Format: in vivo, dog
# stated.conditions: both sexes, mixed-breed, dog, plasma, iv, 0.18 mg/kg, dogs, IV, mean dose 0.18 mg/kg; mean of 6 dogs; read-out: MRT (mean residence time)
# Protocol: All injection durations were identical. Catheters were flushed with 0.9% saline, without heparin. Analyses of plots and PK modeling were performed using compartmental methods in standard software (Phoenix, WinNonlin, Certara, St. Louis, MO). One-, 2- and 3-compartment models were fit to the plasma concentration data.
metric.name: MRT (h)
Field: numeric (h). Do not append units.

Prompt line: Give the measured MRT of COc1ccc(-n2nc(C(N)=O)c3c2C(=O)N(c2ccc(N4CCCCC4=O)cc2)CC3)cc1 [apixaban] .
Response line: 6
